# Tested on: Escherichia coli
# ASSAY NAME: Toxicity screen, serial dilution-spot test;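 also: last dilution that did not fully inhibit growth with colonies still present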
# Type: cell-based
# RUN CONDITIONS: gram negative; 24 h exposure in DI water, 28 °C; 0.0001 = no colonies at 0.001 mM
Listing: Boundary concentration, E. coli of selected compounds
QUANTITY: Boundary concentration, E. coli

- C#CCN1C(C)=C(C(=O)OCC)C(c2ccc[n+](CCCCCCCCCCCC)c2)C(C(=O)OCC)=C1C: 0.001 mM
- CCCCCCCCCCCC[n+]1cccc(C2C(C(=O)OCC)=C(C)NC(C)=C2C(=O)OCC)c1: 0.01 mM
- CCCCCCCCCCCCCCCC[n+]1cccc(C2C(C(=O)OCC)=C(C)NC(C)=C2C(=O)OCC)c1: 0.01 mM
- C#CCN1C(C)=C(C(=O)OCC)C(c2ccc[n+](CCCCCCCCCCCCCCCC)c2)C(C(=O)OCC)=C1C: 0.01 mM
- C#CCOC(=O)C1=C(C)NC(C)=C(C(=O)OCC#C)C1c1ccc[n+](CC)c1: 1 mM
- C#CCOC(=O)C1=C(C)NC(C)=C(C(=O)OCC#C)C1c1ccc[n+](CCCCCCCCCCCC)c1: 0.0001 mM

###

# ASSAY NAME: Self-assembling properties by dynamic light scattering (DLS)
# Format: physicochemical
# RUN CONDITIONS: freshly prepared samples in water; 0.5 mg/mL (1–7), 0.25 mg/mL (8–10), 0.1 mg/mL (11)
QUANTITY: Zeta-Pot ± SD

* C#CCOC(=O)C1=C(C)NC(C)=C(C(=O)OCC#C)C1c1ccc[n+](CCCCCCCCCCCC)c1 | +32.00 ± 4.81 mV
* C#CCOC(=O)C1=C(C)NC(C)=C(C(=O)OCC#C)C1c1ccc[n+](CC)c1 | −0.78 ± 0.26 mV
* CCCCCC[n+]1cccc(C2C(C(=O)OCC)=C(C)NC(C)=C2C(=O)OCC)c1 | −11.39 ± 1.85 mV
* C#CCN1C(C)=C(C(=O)OCC)C(c2ccc[n+](CC)c2)C(C(=O)OCC)=C1C | −5.47 ± 1.97 mV

###

# ASSAY NAME: MTT cytotoxicity assay on MH-22A tumor cells, 72 h
# Format: cell-based, mouse
# RUN CONDITIONS: mouse, MH-22A hepatocarcinoma cells, MTT, 72 h; ne = no effect in the tested concentration (up to 100 μg/mL); read-out: Cytotoxicity IC50, MH-22A
Listing: IC50 at 72 h of selected compounds
QUANTITY: IC50 at 72 h (µM)

• C#CCN1C(C)=C(C(=O)OCC)C(c2ccc[n+](CCCCCC)c2)C(C(=O)OCC)=C1C [Compound 5] = 16
• CCCCCCCCCCCC[n+]1cccc(C2C(C(=O)OCC)=C(C)NC(C)=C2C(=O)OCC)c1 [Compound 3] = 15
• C#CCOC(=O)C1=C(C)NC(C)=C(C(=O)OCC#C)C1c1ccc[n+](CCCCCC)c1 [Compound 8] = 80
• CCCCCC[n+]1cccc(C2C(C(=O)OCC)=C(C)NC(C)=C2C(=O)OCC)c1 [Compound 2] = 67

###

# ASSAY NAME: Determination of critical aggregation concentration (CAC) by DLS
# Format: physicochemical
# RUN CONDITIONS: aqueous media
QUANTITY: CAC

• CCCCCCCCCCCC[n+]1cccc(C2C(C(=O)OCC)=C(C)NC(C)=C2C(=O)OCC)c1 = 9.3 µM
• CCCCCCCCCCCCCCCC[n+]1cccc(C2C(C(=O)OCC)=C(C)NC(C)=C2C(=O)OCC)c1 = 28.2 µM
• C#CCN1C(C)=C(C(=O)OCC)C(c2ccc[n+](CCCCCCCCCCCCCCCC)c2)C(C(=O)OCC)=C1C = 7.6 µM
• C#CCOC(=O)C1=C(C)NC(C)=C(C(=O)OCC#C)C1c1ccc[n+](CCCCCCCCCCCC)c1 = 9.3 µM
• C#CCN1C(C)=C(C(=O)OCC)C(c2ccc[n+](CCCCCCCCCCCC)c2)C(C(=O)OCC)=C1C = 43.3 µM

###

# Test system: HT-1080 (human connective tissue fibrosarcoma) cells
# ASSAY NAME: MTT cytotoxicity assay on HT-1080 tumor cells, 72 h
# Type: cell-based
# RUN CONDITIONS: MTT, 72 h; ne = no effect in the tested concentration (up to 100 μg/mL)
pIC50: −log10 of the molar value.
QUANTITY: pIC50

* C#CCOC(=O)C1=C(C)NC(C)=C(C(=O)OCC#C)C1c1ccc[n+](CCCCCCCCCCCC)c1 | 5.70

###

Listing: Boundary concentration, K. pneumoniae of selected compounds
# Tested on: Klebsiella pneumoniae
# ASSAY NAME: Toxicity screen, serial dilution-spot test;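 also: last dilution that did not fully inhibit growth with colonies still present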
# Format: cell-based
# RUN CONDITIONS: gram negative; 24 h exposure in DI water, 28 °C; 0.0001 = no colonies at 0.001 mM
QUANTITY: Boundary concentration, K. pneumoniae (mM)

* C#CCOC(=O)C1=C(C)NC(C)=C(C(=O)OCC#C)C1c1ccc[n+](CC)c1 | 10
* CCCCCCCCCCCCCCCC[n+]1cccc(C2C(C(=O)OCC)=C(C)NC(C)=C2C(=O)OCC)c1 | 0.01
* CCCCCCCCCCCC[n+]1cccc(C2C(C(=O)OCC)=C(C)NC(C)=C2C(=O)OCC)c1 | 0.1
* C#CCN1C(C)=C(C(=O)OCC)C(c2ccc[n+](CCCCCCCCCCCC)c2)C(C(=O)OCC)=C1C | 0.1
* C#CCN1C(C)=C(C(=O)OCC)C(c2ccc[n+](CCCCCCCCCCCCCCCC)c2)C(C(=O)OCC)=C1C | 10
* C#CCOC(=O)C1=C(C)NC(C)=C(C(=O)OCC#C)C1c1ccc[n+](CCCCCCCCCCCC)c1 | 0.1

###

# ASSAY NAME: MTT cytotoxicity assay on HT-1080 tumor cells, 72 h
# Format: cell-based, human
# RUN CONDITIONS: human, HT-1080 fibrosarcoma cells, as printed in the supplementary toxicity table; read-out: Cytotoxicity, IC50, HT-1080 (supplementary table, for comparison)
QUANTITY: IC50 at 72 h (mM)

- C#CCOC(=O)C1=C(C)NC(C)=C(C(=O)OCC#C)C1c1ccc[n+](CC)c1 [Compound 7]: 1

###

# ASSAY NAME: Self-assembling properties by dynamic light scattering (DLS)
# Format: physicochemical
# RUN CONDITIONS: two weeks of storage at r.t., DLS
QUANTITY: Stability of nanoparticles

* C#CCOC(=O)C1=C(C)NC(C)=C(C(=O)OCC#C)C1c1ccc[n+](CC)c1 | weak stability
* C#CCN1C(C)=C(C(=O)OCC)C(c2ccc[n+](CCCCCC)c2)C(C(=O)OCC)=C1C | weak stability
* CCCCCC[n+]1cccc(C2C(C(=O)OCC)=C(C)NC(C)=C2C(=O)OCC)c1 | weak stability

###

Listing: Zeta-Pot ± SD of selected compounds
# ASSAY NAME: Self-assembling properties by dynamic light scattering (DLS)
# Assay type: physicochemical
# RUN CONDITIONS: freshly prepared samples in water; 0.5 mg/mL (1–7), 0.25 mg/mL (8–10), 0.1 mg/mL (11)
# Description: Samples of compounds for dynamic light scattering (DLS) studies were prepared by thin-film hydration method in an aqueous solution at a concentration of 0.5 mg/mL for compounds 1–7, 0.25 mg/mL for compounds 8–10, and 0.1 mg/mL for compound 11. A corresponding amount of compounds was weighted in a round-bottom flask and dissolved in chloroform; then, the organic solvent was removed in vacuo, and the residue was dried in high vacuo for 1 h. […]
QUANTITY: Zeta-Pot ± SD (mV)

• C#CCN1C(C)=C(C(=O)OCC)C(c2ccc[n+](CCCCCC)c2)C(C(=O)OCC)=C1C = −9.96
• CCOC(=O)C1=C(C)NC(C)=C(C(=O)OCC)C1c1ccc[n+](CC)c1 = −8.43

###

# ASSAY NAME: MTT cytotoxicity assay on MH-22A tumor cells, 72 h
# Assay type: cell-based, mouse
# RUN CONDITIONS: mouse, MH-22A hepatocarcinoma cells, as printed in the supplementary toxicity table; read-out: Cytotoxicity, IC50, MH-22A (supplementary table, for comparison)
QUANTITY: IC50 at 72 h (mM)

• C#CCOC(=O)C1=C(C)NC(C)=C(C(=O)OCC#C)C1c1ccc[n+](CC)c1 [Compound 7] = 1

###

# ASSAY NAME: Basal cytotoxicity test (neutral red uptake) with estimation of LD50 from IC50
# Format: cell-based, mouse
# RUN CONDITIONS: mouse, NIH 3T3 fibroblast cells; calculated from NIH 3T3 NRU IC50, recalculated to mg/kg; read-out: Basal Cytotoxicity Estimated LD50
QUANTITY: LD50 at 24 h

• C#CCOC(=O)C1=C(C)NC(C)=C(C(=O)OCC#C)C1c1ccc[n+](CC)c1 = > 2700 mg/kg
